ASSAYED_SYSTEM: human sodium channels Nav 1.8 (Homo sapiens, UniProt Q9Y5Y9)
Construct: expressed in transfected cells
Sequence (Q9Y5Y9 whole entry): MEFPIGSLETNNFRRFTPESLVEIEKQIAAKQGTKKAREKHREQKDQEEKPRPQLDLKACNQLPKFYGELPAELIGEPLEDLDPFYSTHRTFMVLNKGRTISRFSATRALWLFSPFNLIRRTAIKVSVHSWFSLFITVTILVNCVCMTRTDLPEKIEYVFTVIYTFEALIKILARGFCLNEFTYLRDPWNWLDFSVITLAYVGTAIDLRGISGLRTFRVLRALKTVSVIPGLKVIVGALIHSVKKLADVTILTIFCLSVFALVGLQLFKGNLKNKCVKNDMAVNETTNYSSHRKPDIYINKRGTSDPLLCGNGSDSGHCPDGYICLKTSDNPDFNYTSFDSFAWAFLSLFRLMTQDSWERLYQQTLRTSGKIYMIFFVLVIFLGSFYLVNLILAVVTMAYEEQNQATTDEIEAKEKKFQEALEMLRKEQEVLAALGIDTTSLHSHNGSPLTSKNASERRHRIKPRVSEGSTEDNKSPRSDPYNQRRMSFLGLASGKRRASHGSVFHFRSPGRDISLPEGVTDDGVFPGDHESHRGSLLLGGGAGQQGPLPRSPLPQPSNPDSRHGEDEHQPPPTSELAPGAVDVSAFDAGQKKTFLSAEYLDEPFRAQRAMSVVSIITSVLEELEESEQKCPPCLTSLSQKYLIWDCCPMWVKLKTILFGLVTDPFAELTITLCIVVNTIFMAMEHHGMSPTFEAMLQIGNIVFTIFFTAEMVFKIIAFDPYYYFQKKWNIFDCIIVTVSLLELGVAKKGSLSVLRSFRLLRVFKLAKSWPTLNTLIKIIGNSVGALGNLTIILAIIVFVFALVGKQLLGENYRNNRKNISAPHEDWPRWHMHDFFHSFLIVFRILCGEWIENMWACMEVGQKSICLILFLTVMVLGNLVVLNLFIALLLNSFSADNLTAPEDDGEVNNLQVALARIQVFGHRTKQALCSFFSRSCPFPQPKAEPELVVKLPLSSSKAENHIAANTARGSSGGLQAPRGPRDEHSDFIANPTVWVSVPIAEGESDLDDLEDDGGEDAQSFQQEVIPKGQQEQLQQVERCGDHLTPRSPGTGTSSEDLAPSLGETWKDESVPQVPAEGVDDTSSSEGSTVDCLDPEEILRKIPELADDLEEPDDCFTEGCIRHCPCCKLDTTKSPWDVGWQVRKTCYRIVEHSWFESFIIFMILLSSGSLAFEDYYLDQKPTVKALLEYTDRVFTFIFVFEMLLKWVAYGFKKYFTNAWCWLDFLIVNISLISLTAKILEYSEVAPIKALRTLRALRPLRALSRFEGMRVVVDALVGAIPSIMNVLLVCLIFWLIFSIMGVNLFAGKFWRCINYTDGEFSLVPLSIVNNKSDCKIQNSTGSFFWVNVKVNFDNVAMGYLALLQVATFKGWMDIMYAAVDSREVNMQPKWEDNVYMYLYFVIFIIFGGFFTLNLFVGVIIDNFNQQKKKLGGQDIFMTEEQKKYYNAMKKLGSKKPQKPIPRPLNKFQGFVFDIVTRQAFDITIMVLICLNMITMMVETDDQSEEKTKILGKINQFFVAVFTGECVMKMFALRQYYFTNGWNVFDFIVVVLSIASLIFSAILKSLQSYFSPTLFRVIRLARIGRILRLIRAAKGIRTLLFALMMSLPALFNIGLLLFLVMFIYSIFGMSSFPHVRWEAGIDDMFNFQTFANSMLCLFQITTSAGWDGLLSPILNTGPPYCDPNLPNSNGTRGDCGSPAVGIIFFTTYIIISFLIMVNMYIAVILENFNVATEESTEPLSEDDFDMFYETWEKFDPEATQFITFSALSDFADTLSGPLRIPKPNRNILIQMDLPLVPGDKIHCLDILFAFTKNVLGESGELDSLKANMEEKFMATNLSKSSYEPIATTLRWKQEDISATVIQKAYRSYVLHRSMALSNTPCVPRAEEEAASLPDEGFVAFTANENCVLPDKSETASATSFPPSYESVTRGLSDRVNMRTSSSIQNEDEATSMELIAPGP
RUN_DESCRIPTION: Automated whole-cell voltage-clamp (ScreenPatch 384P) sodium current block, Nav 1.8
Format: cell-based
ASSAY_CONDITIONS: CHO cells stably expressing human Nav 1.8; holding -100 mV, inactivation step -40 mV for 8 seconds, test step 10 mV (TP1A); exposure at least five minutes, room temperature; mean where tested in two or more assays; read-out: Nav1.8 IC50
MEASURED_PROPERTY: IC50

{"columns": ["MOLECULE", "MEASURED_PROPERTY", "RESULT"],
 "data": [
  ["CCOc1ccc(-c2cncc(C(=O)N[C@H]3Cc4c(F)ccc(OC)c4C3)n2)cn1 [compound 82]", "IC50", "500 to 1000 nM"],
  ["CCOc1ccc(-c2cncc(C(=O)N[C@H]3Cc4c(OC)cnc(F)c4C3)n2)cn1 [compound 83]", "IC50", "> 1000 nM"],
  ["COc1cc(OC)cc([C@H](O)CNC(=O)c2cncc(-c3ccc(OC(F)F)cc3)n2)c1 [compound 54]", "IC50", "< 500 nM"],
  ["CCOc1ccc(-c2ccnc(C(=O)NCCc3cc(OC)cnc3F)n2)cn1 [compound 115]", "IC50", "> 1000 nM"],
  ["COc1cc(CCNC(=O)c2cncc(-c3ccc(OC(F)F)nc3)n2)cc(OC)c1 [compound 29]", "IC50", "< 500 nM"],
  ["CCOc1ccc(-c2nccc(C(=O)NCCc3cc(OC)cnc3F)n2)cn1 [compound 110]", "IC50", "> 1000 nM"],
  ["CCOc1ccc(-c2ccnc(C(=O)NCCc3cc(OC)cnc3F)c2)cc1 [compound 105]", "IC50", "> 1000 nM"],
  ["CCOc1ccc(-c2cncc(C(=O)NC[C@H](C)c3cc(OC)cc(OC)c3)n2)cc1 [compound 22]", "IC50", "< 500 nM"],
  ["CCOc1ccc(-c2cncc(C(=O)NCc3ncc4ccc(OC)cn34)n2)cn1 [compound 85]", "IC50", "> 1000 nM"],
  ["[2H]C([2H])([2H])Oc1ccc(-c2cncc(C(=O)NC[C@@H](O)c3cc(OC)cc(OC)c3)n2)cc1 [compound 93]", "IC50", "< 500 nM"],
  ["COc1ccc(-c2cncc(C(=O)NCCc3ccccc3F)n2)cn1 [compound 48]", "IC50", "> 1000 nM"],
  ["CCOc1ccc(-c2cncc(C(=O)NCCc3cc(OC)cc(OC)c3)n2)cc1 [compound 10]", "IC50", "< 500 nM"],
  ["CCOc1ccc(-c2cncc(C(=O)NC[C@H](N)c3cc(OC)cc(OC)c3)n2)cc1 [compound 26]", "IC50", "> 1000 nM"],
  ["CCOc1ccc(-c2cncc(C(=O)N(C)c3cc4c(F)ccc(OC)c4[nH]3)n2)cn1 [compound 71]", "IC50", "> 1000 nM"],
  ["CCOc1ccc(-c2cncc(C(=O)NCCc3cccc(OC)c3)n2)cn1 [compound 45]", "IC50", "< 500 nM"],
  ["CCOc1ccc(-c2cncc(C(=O)Nc3cc4cccc(OC)c4[nH]3)n2)cn1 [compound 72]", "IC50", "> 1000 nM"],
  ["[2H]C([2H])([2H])Oc1ccc(-c2cncc(C(=O)NCCc3ccccc3F)n2)cn1 [compound 89]", "IC50", "< 500 nM"],
  ["COc1cnc(F)c(CCNC(=O)c2cncc(-c3ccc(C(C)(C)O)nc3)n2)c1 [compound 57]", "IC50", "> 1000 nM"],
  ["O=C(NCCc1ccccc1F)c1cncc(-c2ccc(OC(F)F)nc2)n1 [compound 47]", "IC50", "> 1000 nM"],
  ["[2H]C([2H])([2H])Oc1cc(OC([2H])([2H])[2H])cc([C@H](O)CNC(=O)c2cncc(-c3ccc(OC([2H])([2H])[2H])nc3)n2)c1 [compound 92]", "IC50", "> 1000 nM"],
  ["CCOc1ccc(-c2cncc(C(=O)N[C@@H]3Cc4c(F)ccc(OC)c4C3)n2)cn1 [compound 81]", "IC50", "< 500 nM"],
  ["CCOc1ccc(-c2cncc(C(=O)Nc3cn4c(F)ccc(OC)c4n3)n2)cn1 [compound 63]", "IC50", "> 1000 nM"],
  ["CCOc1ccc(-c2cnnc(C(=O)NCCc3cc(OC)cnc3F)c2)cc1 [compound 101]", "IC50", "> 1000 nM"],
  ["CCOc1ccc(-c2cncc(C(=O)Nc3nc4c(F)ccc(OC)c4[nH]3)n2)cn1 [compound 64]", "IC50", "> 1000 nM"],
  ["CCOc1ccc(-c2cncc(C(=O)NC[C@@H](O)c3cc(OC)cc(OC)c3)n2)cc1 [compound 25]", "IC50", "> 1000 nM"],
  ["CCOc1ccc(-c2cncc(C(=O)NCCc3cc(OC)cc(C(C)O)c3)n2)cn1 (stereo not shown) [compound 40]", "IC50", "> 1000 nM"],
  ["[2H]C([2H])([2H])Oc1ccc(-c2cncc(C(=O)NCCc3cc(OC)cnc3F)n2)cn1 [compound 90]", "IC50", "> 1000 nM"],
  ["CCOc1ccc(-c2cc(C(=O)NCCc3cc(OC)cnc3F)ccn2)cn1 [compound 109]", "IC50", "> 1000 nM"]
]}
